molecular target: PI3Kβ (Homo sapiens); construct: made in house; experiment: HTRF in vitro profiling assay for PI3K inhibition (beta isoform); assay type: biochemical; conditions: 200 pM enzyme, 100 uM ATP, 10 uM PIP2, 150 mM NaCl, corrected pIC50, single run or average of two or more runs, read-out: PI3K b pIC50 (converted)
Sequence (P42338 whole entry, canonical isoform): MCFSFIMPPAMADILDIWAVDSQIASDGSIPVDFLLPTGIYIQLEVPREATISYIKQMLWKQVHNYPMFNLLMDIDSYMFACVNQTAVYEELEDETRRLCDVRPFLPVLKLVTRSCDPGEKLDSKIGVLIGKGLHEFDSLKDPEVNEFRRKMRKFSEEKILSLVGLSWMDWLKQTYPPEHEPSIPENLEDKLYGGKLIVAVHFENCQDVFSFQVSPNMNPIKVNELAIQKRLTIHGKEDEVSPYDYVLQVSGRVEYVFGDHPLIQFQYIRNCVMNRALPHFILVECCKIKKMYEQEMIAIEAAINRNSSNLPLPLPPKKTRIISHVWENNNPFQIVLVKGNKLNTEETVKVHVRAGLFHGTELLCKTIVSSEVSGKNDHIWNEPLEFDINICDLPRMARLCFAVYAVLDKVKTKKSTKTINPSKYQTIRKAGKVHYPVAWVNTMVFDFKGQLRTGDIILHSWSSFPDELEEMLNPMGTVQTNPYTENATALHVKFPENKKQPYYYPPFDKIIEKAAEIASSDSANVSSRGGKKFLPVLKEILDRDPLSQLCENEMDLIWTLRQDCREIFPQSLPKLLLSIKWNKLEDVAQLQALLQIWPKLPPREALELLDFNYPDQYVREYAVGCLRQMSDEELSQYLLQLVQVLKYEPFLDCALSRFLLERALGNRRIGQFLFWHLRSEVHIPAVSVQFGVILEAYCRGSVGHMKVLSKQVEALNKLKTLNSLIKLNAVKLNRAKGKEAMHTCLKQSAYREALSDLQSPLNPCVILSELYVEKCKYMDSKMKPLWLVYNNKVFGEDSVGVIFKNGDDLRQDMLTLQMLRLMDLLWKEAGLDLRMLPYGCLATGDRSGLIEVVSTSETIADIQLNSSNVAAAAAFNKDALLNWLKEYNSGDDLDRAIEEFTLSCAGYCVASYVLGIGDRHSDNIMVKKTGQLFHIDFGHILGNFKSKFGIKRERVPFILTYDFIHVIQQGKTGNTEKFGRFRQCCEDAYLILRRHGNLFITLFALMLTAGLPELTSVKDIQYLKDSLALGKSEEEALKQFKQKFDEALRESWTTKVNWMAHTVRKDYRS
Sequence (P27986 whole entry partner, canonical isoform): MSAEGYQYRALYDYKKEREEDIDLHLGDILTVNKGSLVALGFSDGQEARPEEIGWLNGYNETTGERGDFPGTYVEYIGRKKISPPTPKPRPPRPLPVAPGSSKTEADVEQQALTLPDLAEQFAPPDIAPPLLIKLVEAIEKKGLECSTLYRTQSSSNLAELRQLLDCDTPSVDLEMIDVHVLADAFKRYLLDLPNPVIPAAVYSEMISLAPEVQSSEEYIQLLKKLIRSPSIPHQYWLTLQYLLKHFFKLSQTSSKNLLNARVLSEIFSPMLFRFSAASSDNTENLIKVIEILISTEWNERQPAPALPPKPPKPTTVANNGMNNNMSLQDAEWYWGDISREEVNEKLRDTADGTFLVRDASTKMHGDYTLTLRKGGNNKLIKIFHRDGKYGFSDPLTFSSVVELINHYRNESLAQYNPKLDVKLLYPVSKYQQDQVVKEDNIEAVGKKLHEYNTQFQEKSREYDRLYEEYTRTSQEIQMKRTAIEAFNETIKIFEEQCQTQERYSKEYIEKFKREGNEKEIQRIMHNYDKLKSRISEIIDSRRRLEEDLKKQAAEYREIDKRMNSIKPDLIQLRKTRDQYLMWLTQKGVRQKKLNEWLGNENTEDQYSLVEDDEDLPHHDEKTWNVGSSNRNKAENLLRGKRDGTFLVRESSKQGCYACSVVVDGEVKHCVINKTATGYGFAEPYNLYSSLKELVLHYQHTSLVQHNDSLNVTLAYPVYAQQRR
Would you mind telling me the reported IC50 of each entry?
Numbers only, in nM.

For orientation, consider the following solved cases.
# molecule, IC50 [nM]
measured = [
    ("Cc1c(Cl)cccc1Cn1c(C)nc2c(B(O)O)cc(N3CCOCC3)cc21", 0.2),
    ("Cc1c(Cl)cccc1Cn1c(C(F)(F)F)nc2c(B(O)O)cc(N3CCOCC3)cc21", 0.0794),
    ("Cc1c(Cn2c(C(F)F)nc3c(B(O)O)cc(N4CCOCC4)cc32)cccc1C(F)(F)F", 0.126),
    ("Cc1cccc(Cn2c(C)nc3c(B(O)O)cc(N4CCOCC4)cc32)c1", 63.1),
    ("Cc1nc2c(B(O)O)cc(N3CCOCC3)cc2n1Cc1cccc(Cl)c1", 63.1),
    ("Cc1c(Cn2c(CO)nc3c(B(O)O)cc(N4CCOCC4)cc32)cccc1C(F)(F)F", 0.2),
    ("Cc1c(Cn2c(C(C)C)nc3c(B(O)O)cc(N4CCOCC4)cc32)cccc1C(F)(F)F", 3.16),
    ("Cc1c(Cl)cccc1Cn1c(CF)nc2c(B(O)O)cc(N3CCOCC3)cc21", 0.0631),
    ("Cc1c(Cn2cnc3c(B(O)O)cc(N4CCOCC4)cc32)cccc1C(F)(F)F", 1.58),
    ("Cc1c(Cn2c(CF)nc3c(B(O)O)cc(N4CCOCC4)cc32)cccc1C(F)(F)F", 0.0631),
]

Quick request: IC50 for each listed item, please.
1. Cc1ccccc1Cn1c(C)nc2c(B(O)O)cc(N3CCOCC3)cc21
2. Cc1c(Cl)cccc1Cn1c(C(F)F)nc2c(B(O)O)cc(N3CCOCC3)cc21
3. Cc1nc2c(B(O)O)cc(N3CCOCC3)cc2n1Cc1ccccc1Cl
4. Cc1c(Cn2c(C3CC3)nc3c(B(O)O)cc(N4CCOCC4)cc32)cccc1C(F)(F)F
5. Cc1nc2c(B(O)O)cc(N3CCOCC3)cc2n1Cc1cccc2ccsc12
6. Cc1c(Cl)cccc1Cn1cnc2c(B(O)O)cc(N3CCOCC3)cc21

OUTPUT:
[10, 0.0794, 39.8, 1.26, 1.26, 1.26]

Could I get IC50 for every one of these entries?
1. Cc1nc2c(B(O)O)cc(N3CCOCC3)cc2n1Cc1cccc(Cl)c1Cl
2. Cc1nc2c(B(O)O)cc(N3CCOCC3)cc2n1Cc1cccc2ccccc12
3. Cc1cccc(Cn2c(C)nc3c(B(O)O)cc(N4CCOCC4)cc32)c1C
4. Cc1c(Cn2c(C)nc3c(B(O)O)cc(N4CCOCC4)cc32)cccc1C(F)(F)F

OUTPUT:
0.501
0.501
0.501
0.398

* * *

system: MDA-MB-468; assay: Cell growth inhibition in PTEN-deficient cell line MDA-MB-468, anchorage independent, Alamar Blue; assay type: cell-based; conditions: Homo sapiens, 144 h, MDA-MB-468, anchorage independent (soft agar), 6 days incubation, read-out: Prolif EC50 (nM) MDA-MB-468
Lab note: cut-off is 100 nM. Strictly less in EC50 is 1. Exactly 100 nM or more is 0.

# molecule, class-name
rows = [
    ("Cc1nc2c(B(O)O)cc(N3CCOCC3)cc2n1Cc1cccc2ccsc12", 1),
    ("Cc1nc2c(B(O)O)cc(N3CCOCC3)cc2n1Cc1cccc(Cl)c1Cl", 1),
    ("Cc1c(Cn2c(C(C)C)nc3c(B(O)O)cc(N4CCOCC4)cc32)cccc1C(F)(F)F", 0),
    ("Cc1c(Cl)cccc1Cn1cnc2c(B(O)O)cc(N3CCOCC3)cc21", 1),
    ("Cc1cccc(Cn2c(C)nc3c(B(O)O)cc(N4CCOCC4)cc32)c1C", 1),
]

Here is another molecule to look at.
INPUT: Lab log: compare recorded EC50 with 100 nM; is it strictly lower for Cc1c(Cn2c(CO)nc3c(B(O)O)cc(N4CCOCC4)cc32)cccc1C(F)(F)F ?
OUTPUT: 1

* * *

system: MDA-MB-468; test: Cell growth inhibition in PTEN-deficient cell line MDA-MB-468, anchorage independent, Alamar Blue; type: cell-based; settings: Homo sapiens, 144 h, MDA-MB-468, anchorage independent (soft agar), 6 days incubation, read-out: Prolif EC50 (nM) MDA-MB-468
Field: EC50. Provide a value for each of the compounds that follow.
Give bare numbers, in nM.

Example entries and their recorded answers appear below.
# compound, quantity-unit, EC50
measured = [
    ("Cc1c(Cn2c(CF)nc3c(B(O)O)cc(N4CCOCC4)cc32)cccc1C(F)(F)F [Example 16]", "nM", 21.5),
    ("Cc1c(Cn2cnc3c(B(O)O)cc(N4CCOCC4)cc32)cccc1C(F)(F)F [Example 14]", "nM", 62.8),
    ("Cc1c(Cl)cccc1Cn1c(C)nc2c(B(O)O)cc(N3CCOCC3)cc21 [Example 5]", "nM", 6.7),
]

Let us examine a further case.
INPUT: State its EC50 for this compound: Cc1c(Cl)cccc1Cn1c(CF)nc2c(B(O)O)cc(N3CCOCC3)cc21 [Example 17]
OUTPUT: 17.8

* * *

Record form. Attribute: EC50. Fill in for each entry.
test system: MDA-MB-468; test: Cell growth inhibition in PTEN-deficient cell line MDA-MB-468, anchorage independent, Alamar Blue; assay type: cell-based; settings: Homo sapiens, 144 h, MDA-MB-468, anchorage independent (soft agar), 6 days incubation, read-out: Prolif EC50 (nM) MDA-MB-468
Give bare numbers, in nM.

// for each compound below, give its EC50
1. Cc1nc2c(B(O)O)cc(N3CCOCC3)cc2n1Cc1cccc2ccccc12
2. Cc1ccccc1Cn1c(C)nc2c(B(O)O)cc(N3CCOCC3)cc21
3. Cc1c(Cl)cccc1Cn1c(C(F)F)nc2c(B(O)O)cc(N3CCOCC3)cc21

OUTPUT:
[22.3, 1140, 31.5]

Please give EC50 for each item listed below.
1. Cc1c(Cl)cccc1Cn1c(C(F)(F)F)nc2c(B(O)O)cc(N3CCOCC3)cc21
2. Cc1c(Cn2c(C(F)F)nc3c(B(O)O)cc(N4CCOCC4)cc32)cccc1C(F)(F)F
3. Cc1c(Cn2c(C3CC3)nc3c(B(O)O)cc(N4CCOCC4)cc32)cccc1C(F)(F)F
4. Cc1c(Cn2c(C)nc3c(B(O)O)cc(N4CCOCC4)cc32)cccc1C(F)(F)F
5. Cc1cccc(Cn2c(C)nc3c(B(O)O)cc(N4CCOCC4)cc32)c1
6. Cc1nc2c(B(O)O)cc(N3CCOCC3)cc2n1Cc1cccc(Cl)c1

OUTPUT:
[130, 39.8, 126, 11.1, 1880, 246]

INPUT: Please report the measured EC50 for Cc1nc2c(B(O)O)cc(N3CCOCC3)cc2n1Cc1ccccc1Cl
OUTPUT: 3580
